Target: fusion protein PRV
Sequence (chain, as listed by the source): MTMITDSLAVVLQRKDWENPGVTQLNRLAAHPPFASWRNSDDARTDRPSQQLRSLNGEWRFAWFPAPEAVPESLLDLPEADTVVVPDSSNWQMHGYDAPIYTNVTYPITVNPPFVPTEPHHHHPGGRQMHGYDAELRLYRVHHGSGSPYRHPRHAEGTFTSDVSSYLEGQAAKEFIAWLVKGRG
Metric: relative cleavage efficiency

Query block: I am curious: what relative cleavage efficiency value has been reported for OmpT protease variant OmpT D97S (protein) STETLSFTPDNINADISLGTLSGKTKERVYLAEEGGRKVSQLDWKFNNAAIIKGAINWDLMPQISIGAAGWTTLGSRGGNMVDQDWMDSSNPGTWTSESRHPDTQLNYANEFDLNIKGWLLNEPNYRLGLMAGYQESRYSFTARGGSYIYSSEEGFRDDIGSFPNGERAIGYKQRFKMPYIGLTGSYRYEDFELGGTFKYSGWVESSDNDEHYDPGKRITYRSKVKDQNYYSVAVNAGYYVTPNAKVYVEGAWNRVTNKKGNTSLYDHNNNTSDYSKNGAGIENYNFITTAGLKYTF ?
Result block: < 3%
